# target-desc: CASTOR1 (Homo sapiens, UniProt Q8WTX7)
# Construct: full-length human CASTOR1, N-terminal 6×His-tag (homodimer)
# Sequence (Q8WTX7 1-329): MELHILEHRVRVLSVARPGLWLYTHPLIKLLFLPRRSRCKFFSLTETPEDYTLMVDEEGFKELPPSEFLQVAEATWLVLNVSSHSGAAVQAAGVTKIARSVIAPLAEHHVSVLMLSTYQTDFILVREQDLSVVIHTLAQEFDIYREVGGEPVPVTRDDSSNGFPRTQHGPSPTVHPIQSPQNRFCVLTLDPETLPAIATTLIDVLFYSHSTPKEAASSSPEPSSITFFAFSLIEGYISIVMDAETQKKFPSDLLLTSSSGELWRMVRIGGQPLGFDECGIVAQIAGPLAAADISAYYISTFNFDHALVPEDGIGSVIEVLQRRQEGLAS
# test-protocol: ITC
readout-kind: pKd
One number for each entry, as −log10 of the molar value.

Task: Please look up its pKd: "N=C(N)NCCC[C@H](N)C(=O)O"
Result: 5.65
